All figures here come from patent US10428071B2.

Measured pIC50 of individual entries
Test system: H211 cell line
Protocol description: Cell activity detection, Alamar-Blue, H211
Assay type: cell-based
Condition info: Homo sapiens, NCI-H211, 72 h incubation
pIC50: −log10 of the molar value.

>  <Molecule>
Cc1nnn(C)c1-c1cnc2c3cc4c(cc3n([C@H](c3ccccc3)C3CCOCC3)c2c1)C(=O)N(C)C4 [Compound 1]

>  <pIC50>
8.14

$$$$
>  <Molecule>
Cc1nnn(C)c1-c1cnc2c3c4c(ccc3n([C@H](c3ccccc3)C3CCOCC3)c2c1)C(=O)N(C)C4 [Compound 3]

>  <pIC50>
8.28

$$$$
>  <Molecule>
Cc1nnn(C)c1-c1cnc2c3c4c(ccc3n([C@H](c3ccccc3)C3CCOCC3)c2c1)cnn4C [Compound 7]

>  <pIC50>
8.46

$$$$
>  <Molecule>
Cc1nnn(C)c1-c1cnc2c3c4cnn(C)c4c(F)cc3n([C@H](c3ccccc3)C3CCOCC3)c2c1 [Compound 8]

>  <pIC50>
8.38

$$$$
>  <Molecule>
[2H]C([2H])([2H])c1nnn(C)c1-c1cnc2c3c4cn[nH]c4ccc3n([C@H](c3ccccc3)C3CCOCC3)c2c1 [Compound 14]

>  <pIC50>
8.40

$$$$
>  <Molecule>
Cc1nnn(C)c1-c1cnc2c3c4ccn(C)c4ccc3n([C@H](c3ccccc3)C3CCOCC3)c2c1 [Compound 9]

>  <pIC50>
8.17

$$$$
>  <Molecule>
Cc1nnn(C)c1-c1cnc2c3cc4cnn(C)c4cc3n([C@H](c3ccccc3)C3CCOCC3)c2c1 [Compound 5]

>  <pIC50>
7.53

$$$$
